These entries and their values trace back to BindingDB's records for doi:10.1023/a:1006986824213.

# TGT: Alpha-1A adrenergic receptor (Rattus norvegicus)
# Sequence (P43140 whole entry): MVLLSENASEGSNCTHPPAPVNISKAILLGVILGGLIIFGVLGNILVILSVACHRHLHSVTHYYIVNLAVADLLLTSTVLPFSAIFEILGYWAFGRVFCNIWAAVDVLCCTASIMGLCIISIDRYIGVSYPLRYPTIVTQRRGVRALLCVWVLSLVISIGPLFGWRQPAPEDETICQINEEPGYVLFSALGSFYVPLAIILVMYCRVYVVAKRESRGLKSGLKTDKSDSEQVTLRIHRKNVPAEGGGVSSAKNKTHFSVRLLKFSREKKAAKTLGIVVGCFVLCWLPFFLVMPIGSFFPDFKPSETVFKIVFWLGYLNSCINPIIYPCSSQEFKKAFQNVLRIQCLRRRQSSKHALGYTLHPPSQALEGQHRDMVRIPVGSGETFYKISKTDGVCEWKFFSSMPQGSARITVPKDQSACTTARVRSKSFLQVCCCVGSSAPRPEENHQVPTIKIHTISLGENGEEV
For each record, write down the corresponding Ki.
Answers are plain numbers, in nM.

CCc1nn(CCCN2CCN(c3cccc(Cl)c3)CC2)c(=O)n1CCOc1ccccc1 ... 42
COCCCC/C(=N\OCCN)c1ccc(C(F)(F)F)cc1 ... 4800
CN[C@@H]1CC[C@@H](c2ccc(Cl)c(Cl)c2)c2ccccc21 ... 2800
CN(C)CCC=C1c2ccccc2CCc2ccccc21 ... 69
CN(C)CCC=C1c2ccccc2CSc2ccccc21 [CAS_897-15-4] ... 419

So, CN(CCCN1c2ccccc2CCc2ccccc21)CC(=O)c1ccc(Cl)cc1 [CAS_23047-25-8] ? Its Ki was 620

----------
Entries below carry reported Ki on Norepinephrine transporter (Rattus norvegicus).
Where a name gives a salt, the structure may show the parent alone.
Put down the number, then write its unit next to it.

CCc1nn(CCCN2CCN(c3cccc(Cl)c3)CC2)c(=O)n1CCOc1ccccc1 ... 110 nM
CN(C)CCC=C1c2ccccc2CCc2ccccc21 ... 24 nM
CN(CCCN1c2ccccc2CCc2ccccc21)CC(=O)c1ccc(Cl)cc1 ... 2.7 nM
COCCCC/C(=N\OCCN)c1ccc(C(F)(F)F)cc1 ... 620 nM
CN(C)CCC=C1c2ccccc2CSc2ccccc21 ... 70 nM

Next compound, please.
Value of Ki reported for the compound CC(NC(C)(C)C)C(=O)c1cccc(Cl)c1 (stereo unspecified) [BUPROPION HYDROCHLORIDE] is 1400 nM

----------
Where a name gives a salt, the structure may show the parent alone.
Sodium-dependent dopamine transporter (Rattus norvegicus, UniProt P23977): recorded Ki for assorted compounds
Sequence (P23977 whole entry): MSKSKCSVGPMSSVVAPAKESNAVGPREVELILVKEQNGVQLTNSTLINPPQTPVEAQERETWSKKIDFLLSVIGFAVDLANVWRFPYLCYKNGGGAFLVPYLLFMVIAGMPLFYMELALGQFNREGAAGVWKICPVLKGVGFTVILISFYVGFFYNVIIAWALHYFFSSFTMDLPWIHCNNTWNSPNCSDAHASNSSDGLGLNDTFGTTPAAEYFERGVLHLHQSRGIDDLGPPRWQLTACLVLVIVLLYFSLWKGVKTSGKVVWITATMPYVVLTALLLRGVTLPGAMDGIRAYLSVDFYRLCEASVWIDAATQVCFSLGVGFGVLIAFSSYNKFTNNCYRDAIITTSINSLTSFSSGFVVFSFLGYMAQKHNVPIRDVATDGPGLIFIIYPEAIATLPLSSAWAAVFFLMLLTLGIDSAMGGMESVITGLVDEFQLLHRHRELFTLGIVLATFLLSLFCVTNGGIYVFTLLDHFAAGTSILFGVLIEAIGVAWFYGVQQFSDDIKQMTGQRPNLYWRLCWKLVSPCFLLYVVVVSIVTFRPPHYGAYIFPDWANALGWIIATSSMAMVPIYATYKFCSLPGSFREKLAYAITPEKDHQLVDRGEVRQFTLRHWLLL
Give bare numbers, in µM.

Illustrative cases are given below, each with its answer.
CN(C)CCC=C1c2ccccc2CSc2ccccc21 ... 5.18
CN(C)CCC=C1c2ccccc2CCc2ccccc21 ... 5.3
CC(NC(C)(C)C)C(=O)c1cccc(Cl)c1 (stereo unspecified) [BUPROPION HYDROCHLORIDE] ... 0.57
CN(CCCN1c2ccccc2CCc2ccccc21)CC(=O)c1ccc(Cl)cc1 ... 3.3

Let us move to another entry and its Ki.
The compound identified as CCc1nn(CCCN2CCN(c3cccc(Cl)c3)CC2)c(=O)n1CCOc1ccccc1 registered its Ki at 0.47

----------
# TGT: Alpha-2C adrenergic receptor (Rattus norvegicus)
# Sequence (P22086 whole entry): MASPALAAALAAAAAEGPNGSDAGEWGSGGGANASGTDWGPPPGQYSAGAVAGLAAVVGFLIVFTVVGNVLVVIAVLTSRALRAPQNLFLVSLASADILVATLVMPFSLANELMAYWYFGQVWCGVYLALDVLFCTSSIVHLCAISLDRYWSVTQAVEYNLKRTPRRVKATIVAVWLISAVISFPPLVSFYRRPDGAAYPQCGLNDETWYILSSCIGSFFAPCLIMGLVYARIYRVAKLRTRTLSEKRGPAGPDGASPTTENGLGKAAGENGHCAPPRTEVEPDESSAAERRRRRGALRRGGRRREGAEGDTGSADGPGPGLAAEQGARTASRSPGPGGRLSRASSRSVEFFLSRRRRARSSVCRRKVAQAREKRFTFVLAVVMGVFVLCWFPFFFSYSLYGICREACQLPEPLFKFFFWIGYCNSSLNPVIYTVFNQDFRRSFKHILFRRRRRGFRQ
Where a name gives a salt, the structure may show the parent alone.
MEASUREMENT KIND: Ki

Examples with their reported Ki follow.
CCc1nn(CCCN2CCN(c3cccc(Cl)c3)CC2)c(=O)n1CCOc1ccccc1 ... 1200 nM
CN(CCCN1c2ccccc2CCc2ccccc21)CC(=O)c1ccc(Cl)cc1 ... 2100 nM
CN(C)CCCC1(c2ccc(F)cc2)OCc2cc(C#N)ccc21 (stereo not given) [CITALOPRAM HYDROBROMIDE] ... > 10000 nM
CN(C)CCC=C1c2ccccc2CCc2ccccc21 ... 340 nM

Then there is this compound:
Record COc1ccc(C(CN(C)C)C2(O)CCCCC2)cc1 (stereo not given) , field Ki: > 10000 nM
